# target: soluble HLA-A2.01 molecules
# test-summary: competition with 125I-F10V for HLA-A2.01, ratio peptide/125I-F10V 10/1
Non-standard residues stand in square brackets, D forms with d. No end group written: not given here. Abu = CC[C@H](N)C(=O)O
experimental-endpoint: percentage inhibition of the binding of 125I-F10V, ratio 10/1 (%)
Reply with just the number (in %).

Task: Let me know recorded percentage inhibition of the binding of 125I-F10V, ratio 10/1 for YIAESILGM (modifications not checked) [Y9M-5S] , thanks.
Output: 25

Task: Look up percentage inhibition of the binding of 125I-F10V, ratio 10/1 of YIAE[Abu]ILGM [Y9M-5α-but] and report it.
Output: 26

Task: State its percentage inhibition of the binding of 125I-F10V, ratio 10/1: AMPIGRIAE (modifications not checked) [A9E]
Output: 47

Task: Check the records and state percentage inhibition of the binding of 125I-F10V, ratio 10/1 for RIAESILGM (modifications not checked) [R9M-5S]
Output: 74

Task: Please give the documented percentage inhibition of the binding of 125I-F10V, ratio 10/1 of RIAECILGM (modifications not checked) [wildtype R9M peptide]
Output: 64

Task: Answer with the recorded percentage inhibition of the binding of 125I-F10V, ratio 10/1 of RIAE[Abu]ILGM [R9M-5α-but] only.
Output: 27

Task: Give recorded percentage inhibition of the binding of 125I-F10V, ratio 10/1. RIAEAILGM (modifications not checked) [R9M-5A]
Output: 59

Task: Output measured percentage inhibition of the binding of 125I-F10V, ratio 10/1 for this item: YIAEAILGM (modifications not checked) [Y9M-5A]
Output: 79
